test_protocol: PK and tissue distribution after single oral administration in Ba/F3-EPOR-JAK2^V617F tumor-bearing mice
Assay type: in vivo
condition_set: BALB/c nude, mouse, plasma, oral, 30 mg/kg; single; 2 h; read-out: FM concentration, Plasma
property_label: concentration at 2 h (ng/mL)

Cc1cnc(Nc2ccc(N3CCC(N(C)CCO)CC3)c(F)c2)nc1-c1cnn(C(C)C)c1 [FM]    458

---

test_protocol: PK and tissue distribution after single oral administration in Ba/F3-EPOR-JAK2^V617F tumor-bearing mice
Type: in vivo
condition_set: BALB/c nude, mouse, heart, oral, 30 mg/kg; single; 2 h; read-out: FM concentration, Heart
property_label: concentration at 2 h (ng/g)

Cc1cnc(Nc2ccc(N3CCC(N(C)CCO)CC3)c(F)c2)nc1-c1cnn(C(C)C)c1    1650

---

test_protocol: PK and tissue distribution after repeated oral administration in Ba/F3-EPOR-JAK2^V617F tumor-bearing mice
Format: in vivo
condition_set: BALB/c nude, mouse, kidney, oral, 30 mg/kg; repeated; 0.5 h; read-out: FM concentration, Kidney
property_label: concentration at 0.5 h (ng/g)

Cc1cnc(Nc2ccc(N3CCC(N(C)CCO)CC3)c(F)c2)nc1-c1cnn(C(C)C)c1    11800

---

test_protocol: PK and tissue distribution after single oral administration in Ba/F3-EPOR-JAK2^V617F tumor-bearing mice
Format: in vivo
condition_set: BALB/c nude, mouse, spleen, oral, 30 mg/kg; single; 24 h; read-out: FM concentration, Spleen
property_label: concentration at 24 h (ng/g)

Cc1cnc(Nc2ccc(N3CCC(N(C)CCO)CC3)c(F)c2)nc1-c1cnn(C(C)C)c1    32.6

---

test_protocol: PK and tissue distribution after single oral administration in Ba/F3-EPOR-JAK2^V617F tumor-bearing mice
Format: in vivo
condition_set: BALB/c nude, mouse, spleen; 12 h after single oral 30 mg/kg; converted; read-out: concentration of FM in spleen
property_label: concentration at 12 h

Cc1cnc(Nc2ccc(N3CCC(N(C)CCO)CC3)c(F)c2)nc1-c1cnn(C(C)C)c1 [FM]    ~614 nM

---

test_protocol: PK and tissue distribution after repeated oral administration in Ba/F3-EPOR-JAK2^V617F tumor-bearing mice
Format: in vivo
condition_set: BALB/c nude, mouse, liver, oral, 30 mg/kg; repeated; 2 h; read-out: FM concentration, Liver
property_label: concentration at 2 h

Cc1cnc(Nc2ccc(N3CCC(N(C)CCO)CC3)c(F)c2)nc1-c1cnn(C(C)C)c1 [FM]    6420 ng/g

---

test_protocol: PK and tissue distribution after repeated oral administration in Ba/F3-EPOR-JAK2^V617F tumor-bearing mice
Type: in vivo
condition_set: BALB/c nude, mouse, brain, oral, 30 mg/kg; repeated; 0 h; read-out: FM concentration, Brain
property_label: concentration at 0 h (ng/g)

Cc1cnc(Nc2ccc(N3CCC(N(C)CCO)CC3)c(F)c2)nc1-c1cnn(C(C)C)c1    6.3

---

test_protocol: PK and tissue distribution after repeated oral administration in Ba/F3-EPOR-JAK2^V617F tumor-bearing mice
Assay type: in vivo
condition_set: BALB/c nude, mouse, liver, oral, 30 mg/kg; repeated; 0.5 h; read-out: FM concentration, Liver
property_label: concentration at 0.5 h (ng/g)

Cc1cnc(Nc2ccc(N3CCC(N(C)CCO)CC3)c(F)c2)nc1-c1cnn(C(C)C)c1    4360
